# System: MS2 coat protein
# methodDescription: apparent KD of MS2 coat protein; higher = weaker reporter binding
# assayConditions: Eterna round: R101; input ligand: FMN 200 uM
Measured apparent KD of MS2 coat protein, listed per entry for reference.
Use nM as the unit, but write only the number.

Completed entries (count: 2):
residues="AAAUAACUUGAAGGAUAUGACCCUCGAGGUGACUAAAAGUCACCUCGAGGGUCAGAAGGUCGAGGAUCACCCGACCUAGUGAAA [#SharedSequence SLExNG1: 7-1] (puzzle (switch architecture): Small Loop Exclusion NG 1)" assayresult=7.61
residues="GUAGCUAUCGGAGGAUAUUCAUACCGGAAACGGACAUGAGGAUCACCCAUGUGGCGAAAGCCUUGGGAGAAGGCCGAUAGCUAC [#DoubleMagnetSystem - jl-sng2-2.23 Eli mod] (puzzle (switch architecture): Same State NG 2)" assayresult=7.49

Please examine the following record next.
Would you mind telling me what apparent KD of MS2 coat protein value was observed for AAUAAACAAUAAAAGAGUCCACGAAACUUUUGAGGAUCACCCAGAAGGGCUGAGGUAAUACCUCAGCAGGAUAUGGACGUGGAC [#SharedSequence IExNG# - 3] (puzzle (switch architecture): Inverted Exclusion NG 3) ?
86.8

* * *

# Test system: MS2 coat protein
# methodDescription: apparent KD of MS2 coat protein; designed switch direction (-1 OFF switch, 1 ON switch): -1; higher = weaker reporter binding
# assayConditions: input ligand: FMN 200 uM
Quick rule: apparent KD of MS2 coat protein of at least 40 nM means MET, below that means NOT MET.

apparent KD of MS2 coat protein >= 40 nM for AGUAAUUCAAGAGGAUAUCACAUGAGGAUCACCCAUGUAUAGCGCGCUACGCUAGUCCUCGUAUUUGAGAAGGUUUGAUAAAAG [Mat - Exclusion NG 2 - Mod of JL - D76] (Eterna round: R96, puzzle: Exclusion NG 2) ?
NOT MET

apparent KD of MS2 coat protein >= 40 nM for AUAAUGUGAGGAUAUCAGUCGACUAGCGAUAGCUAGUCGACUGAGAAGGUACAUGAGGAUCACCCAUGUAGAUC [E4/20-A4] (Eterna round: R97, puzzle: Exclusion 4) ?
MET

apparent KD of MS2 coat protein >= 40 nM for UCUCGCUGGCGAGGAUAUCCUGUGCGGUUCCGGCUCGUGUCUGUUACAUGAGGAUCACCCAUGUGGGAGAAGGUGUCUGUGGCC [Design 96] (Eterna round: R96, puzzle: Exclusion NG 2) ?
NOT MET

apparent KD of MS2 coat protein >= 40 nM for GCCUCACUUGAGGAUCACCCAAGUCAGGAUAUUCACGGAACUAUGUAGCAGUUCGGCCGGAGAAGGGAUUCGGG [Areses] (Eterna round: R97, puzzle: Exclusion 1) ?
MET

apparent KD of MS2 coat protein >= 40 nM for UAUGAAGUAGGAUAUACAUGAGGAUCACCCAUGUCCUUACUGAGACCGGGCACGGCUCGUAGAAGGGCUUUCGA [Eternabot (L2) Solution 50] (Eterna round: R97, puzzle: Exclusion 3) ?
NOT MET

* * *

# System: MS2 coat protein
# methodDescription: apparent KD of MS2 coat protein; designed switch direction (-1 OFF switch, 1 ON switch): -1; higher = weaker reporter binding
# assayConditions: input ligand: FMN 200 uM
Quick rule: apparent KD of MS2 coat protein of at least 50 nM means 1 (yes), below that means 0 (no).

apparent KD of MS2 coat protein >= 50 nM for CUGGACCCGGUAGGAUAUAUUGUGGGCGGGCGUGGAACGACAUGAGGAUCACCCAUGUGAUUGAGGUAGAAGGGCCGAGAGGUU [Excl-NG2-LRO18] (Eterna round: R96, puzzle: Exclusion NG 2) ?
1 (yes)

apparent KD of MS2 coat protein >= 50 nM for GAGUGCUGAGGAUAUACAUGAGGAUCACCCAUGUGCUUCAGCUAGGAGACUAGCAUUCGUAGAAGGCAGUACUC [Mod of lroppy 22 - Jieux - Exclusion 3] (Eterna round: R97, puzzle: Exclusion 3) ?
0 (no)

apparent KD of MS2 coat protein >= 50 nM for UAGAAGUCAGGAUAUCCAUGGCGGCACUUGCGUGGUGGCGUGGAGAAGGGACAUGAGGAUCACCCAUGUAAAGG [salish99-ex4-045] (Eterna round: R96, puzzle: Exclusion 4) ?
1 (yes)

apparent KD of MS2 coat protein >= 50 nM for CCACGACAUGAGGAUCACCCAUGUGAGGAUAUGGCCUGAAAAGCGUGAGCAGUAUCAAUCAGAAGGCGCGUGGG [salish99_ex1_r4_061] (Eterna round: R97, puzzle: Exclusion 1) ?
1 (yes)

apparent KD of MS2 coat protein >= 50 nM for GAUUCGGGAGGAUAUACAUGAGGAUCACCCAUGUAUAUAUAAUAUAAUAAAUUAAAAUGUAGAAGGUUUGGGUC [-13.5, -9.6 kcal, 38% A] (Eterna round: R97, puzzle: Exclusion 3) ?
0 (no)

apparent KD of MS2 coat protein >= 50 nM for UCGCUCCGUGUAGGAUAUCGUUGUACUCUGCGGCGAGAAGGACAUGAGGAUCACCCAUGUAUGUUAUUAUCACGCGUGGCGCAA [Design 68] (Eterna round: R96, puzzle: Exclusion NG 1) ?
0 (no)

apparent KD of MS2 coat protein >= 50 nM for GUCAGCUCGUCAGGAUAUGCACAUGAGGAUCACCCAUGUAAGAUCAAGCUGCUUCGGCAGCAAGUGCAGAAGGGACGAGCUGAC [ENG2/9-B1] (Eterna round: R96, puzzle: Exclusion NG 2) ?
1 (yes)

apparent KD of MS2 coat protein >= 50 nM for ACUAGCUUUUUGCAUUUUAGGUUUGUUGCUUCGUAUGUAACAUGAGGAUCACCCAUGUAUUACUGAUGUCGUCGUUU [JR_SV3TOV2_Sub090] (Eterna round: R96, puzzle: Sensor v3, turn-off variant 2) ?
0 (no)

apparent KD of MS2 coat protein >= 50 nM for UCGCGCCAAGGAUAUACAUGAGGAUCACCCAUGUUGAAAGAAAAGUUGUCCGGUCCCAGUAGAAGGUGGUUCCC [Eternabot (L2) Solution 90] (Eterna round: R97, puzzle: Exclusion 3) ?
0 (no)

apparent KD of MS2 coat protein >= 50 nM for UGAUCUAGCGGAGGAUAUACAUGAGGAUCACCCAUGUAAAUCGCUGAACCGUAGUUCAGCAUCAUGUAGAAGGCCGCUAGAUCU [MOD2 ENG2 3.62 by JL] (Eterna round: R96, puzzle: Exclusion NG 2) ?
1 (yes)

All figures here come from the supplement of paper PMC9170038.
